Target: Bcl-xL protein (Homo sapiens, UniProt Q07817, N197C)
Construct: (2-197)[N197C]; His-His (two His8 stretches joined by a Gly/Ala/Ser/Thr linker)
Sequence (Q07817 2-197 N197C): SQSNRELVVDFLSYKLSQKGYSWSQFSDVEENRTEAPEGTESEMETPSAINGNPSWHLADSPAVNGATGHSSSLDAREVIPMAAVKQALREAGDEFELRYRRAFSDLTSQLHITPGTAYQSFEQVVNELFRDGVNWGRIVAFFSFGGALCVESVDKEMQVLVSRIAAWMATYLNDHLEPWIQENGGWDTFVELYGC
Experiment: Fluorescence quenching assay (PUMA peptide displacement)
Settings: 1 nM protein, 400 nM peptide, 2 hours at 23° C.; KI determined from IC50
endpoint name: Ki (pM)

Cc1cc(N(CCCCO)c2nc(C(=O)O)c(CCCOc3ccc(C#CCN(C)C)cc3F)s2)nnc1Nc1nc2ccccc2s1 [Example 134] : 1
CNCCCCN(c1cc(C)c(Nc2nc3ccccc3s2)nn1)c1nc(C(=O)O)c(CCCOc2ccc(C#CCN(C)C)cc2F)s1 [Example 188] : 1.8
Cc1cc(N(C)c2nc(C(=O)O)c(CCCOc3ccc(C#CCNCC[N+](C)(C)CCCS(=O)(=O)[O-])cc3F)s2)nnc1Nc1nc2ccccc2s1 [Example 218] : 1.2
Cc1cc(N(CCCCNCCN2CCN(C)CC2)c2nc(C(=O)O)c(CCCOc3ccc(C#CCN(C)C)cc3F)s2)nnc1Nc1nc2ccccc2s1 [Example 168] : 2.6
Cc1cc(N(CCCCC[N+](C)(C)CCCO)c2nc(C(=O)[O-])c(CCCOc3ccc(C#CCN(C)C)cc3F)s2)nnc1Nc1nc2ccccc2s1 [Example 225] : 3.5
Cc1cc(N(CCCCCO)c2nc(C(=O)O)c(CCCOc3ccc(C#CCN(C)C)cc3F)s2)nnc1Nc1nc2ccccc2s1 [Example 141] : 5.5

[I] CNCC#Cc1ccc(OCCCc2sc(N(CCCC(O)CN(C)C)c3cc(C)c(Nc4nc5ccccc5s4)nn3)nc2C(=O)O)c(F)c1 (stereo not shown) [Example 193]
[II] Cc1cc(N(C)c2nc(C(=O)O)c(CCCOc3ccc(C#CCN(C)C)cc3)s2)nnc1Nc1nc2ccccc2s1 [Example 233]
[III] Cc1cc(N(CCCCCNCCN2CCCCC2)c2nc(C(=O)O)c(CCCOc3ccc(C#CCN(C)C)cc3F)s2)nnc1Nc1nc2ccccc2s1 [Example 187]
[IV] Cc1cc(N(C)c2nc(C(=O)O)c(CCCOc3ccc(C#CCN4CCOCC4)cc3F)s2)nnc1Nc1nc2ccccc2s1 [Example 198]
Req: Arrange the 4 compounds from largest to smallest Ki. Ranked list of labels, please, in the requested order.
Resp: IV, II, III, I
(IV: 7.3 pM, II: 4.3 pM, III: 2.5 pM, I: 1.3 pM)
